Origin of measurements: the supplement of paper PMC9732359

Assay: protein stability index of a GFP-peptide fusion (yeast GPS) (PSI 1-4); higher = more stable; sorted into four equal gates, so the index is relative within each strain
Conditions: pdr5∆
Provide the reported protein stability index of each item.
Numbers only.

EGHLAEIRAKEYKTSSD [SRB2] = 3.29
LDQLLVLEKKTRQASDL [RPN5] = 2.95
ELSKSRALQENGIIMNG [YMR153W/NUP53] = 2.85
SLDTLELESITESITHD [NUT1] = 2.42
SDSYKVSLQNFSSSVSL [RRP40] = 1.8

I would be grateful if you could provide protein stability index for each of the following entries.
1. FEWDISNSDNCPEEFAE [SNF5]
2. ENLEESFLSKHALYLAP [SSN2]
3. DDVYRPAAESKIFTPNL [SNF5]
4. KTRNPLTHSTPKNFGIG [RPL8A]
5. KNQLRDWIRFVSTKTNE [RPL22A]
6. RKPMGKRINFEKIKDIH [POP1]

Response line:
3.19
3.31
3.09
2.9
2.22
3.12

###

Experiment: protein stability index of a GFP-peptide fusion (yeast GPS) (PSI 1-4); higher = more stable; sorted into four equal gates, so the index is relative within each strain
Settings: san1∆
Provide the reported protein stability index of each item.
Numbers only.

Completed entries (count: 2):
KSLHEMNERDWRILKED [PRP28] = 3.33
VQDIIGNGKLSEHFLYL [RPN1] = 3.29

I would be grateful if you could provide protein stability index for each of the following entries.
1. AQAQAQAQAQAQAQAQA [GAL11]
2. YRATSLDPSLRAPIYHS [YML031W/NDC1]

Response line:
[2.98, 2.44]

I would be grateful if you could provide protein stability index for each of the following entries.
1. INHTILGKLQDVFNLLP [RPN8]
2. VMESGAKGCEVVVSGKL [RPS3]

Response line:
2.84
3

I would be grateful if you could provide protein stability index for each of the following entries.
1. YMEPFDLDLNEQVRKMY [NSL1]
2. LSMNIAPRLRLEDIFQQ [RET1]
3. GTIDKLQLELTIEDIAV [RPO31]
4. DSVATVIEVIETKWDDA [YJR042W/NUP85]

Response line:
1: 3.1; 2: 1.98; 3: 2.3; 4: 2.16

###

Experiment: protein stability index of a GFP-peptide fusion (yeast GPS) (PSI 1-4); higher = more stable; sorted into four equal gates, so the index is relative within each strain
Settings: doa10∆
Assign true (1) whenever protein stability index does not fall below 2; assign false (0) whenever it does.

Consider the worked cases shown below.
LWRNFCRKLSFSDKVNA [ITC1] = true (1)
GENVFLKRISDGLSFGK [SIR3] = true (1)
TRLYDYEIRDIDQDIHG [SSN2] = true (1)
LLFKARLQQQQAQAQAQ [GAL11] = false (0)

Prompt line: Textbook exercise: given the entry NDDIEWMLSICVEWRLP [YJR042W/NUP85] , state whether its protein stability index is greater than or equal to 2.
Response line: false (0)

Prompt line: Lookup MAPFRQDSILIIYPRSQ [ARP9]
Response line: true (1)

Prompt line: Lookup VSFNGFKLPKKFPPPTP [BRR2]
Response line: true (1)

Prompt line: Lookup DIFAVNLEESSKLDIYT [RET1]
Response line: true (1)

###

Test: protein stability index of a GFP-peptide fusion (yeast GPS) (PSI 1-4); higher = more stable; sorted into four equal gates, so the index is relative within each strain
Conditions: san1∆
# label = bin(measured protein stability index), where bins are low-valued (below 2), mid-valued (2 to below 3), high-valued (3 or more)

QKSSKENIENEEYVINL [ECM29] = mid-valued
AEEVRNFALTTLIDLVK [ECM29] = low-valued
PQKPVPLNVLQDQYKEG [SNF2] = high-valued
VQYKLLSISVPSDVNID [SNU114] = mid-valued
FPPGVIGIDEGSDEAYV [RPC40] = high-valued
LYVPRKCSATNRIIKAD [RPS21A] = mid-valued

Could you now look at the following sequence, please?
Prompt line: Just checking, what class would you give YDSRSGTHNMYKEIRDV [RPL20A] here?
Response line: high-valued

###

Test: protein stability index of a GFP-peptide fusion (yeast GPS) (PSI 1-4); higher = more stable; sorted into four equal gates, so the index is relative within each strain
Details: pdr5∆
# label = bin(measured protein stability index), where bins are category 1 (below 2), category 2 (2 to below 3), category 3 (3 or more)

IILKTRQINKLIDSLPG [SRB7] = category 2
TPGELVTDDPIWMRGHG [RRP4] = category 2
PEQVYSLLLTNVIITGS [ARP7] = category 1
VIPIRRGYWGTNLGQPH [RPS2] = category 1

Could you now look at the following sequence, please?
Prompt line: Just checking, what class would you give TLTDILEDELYHTNPGH [RPN4] here?
Response line: category 3

###

Test: protein stability index of a GFP-peptide fusion (yeast GPS) (PSI 1-4); higher = more stable; sorted into four equal gates, so the index is relative within each strain
Conditions: ubr1∆
Provide the reported protein stability index of each item.

Completed entries (count: 5):
DFPHLTPKLQTQLSYLI [YCS4] = 2.67
GKGRQSAKAELEKLVDH [PRE10] = 1.14
RNNSKSVLLKKLGSVRV [SRP72] = 1.69
DSFSGAKIYPGRGTLFV [RPL24A] = 2.68
HFIQKLHTARKILVLTG [SIR2] = 1.66

I would be grateful if you could provide protein stability index for each of the following entries.
1. GPNNFIWPAEDALRRGM [MED4]
2. RENLHILNEVFTNPSIV [RRP6]
3. NVTQNEQQWITRAQYLA [SRP68]

Response line:
1. 3.27
2. 2.25
3. 1.28

###

Test: protein stability index of a GFP-peptide fusion (yeast GPS) (PSI 1-4); higher = more stable; sorted into four equal gates, so the index is relative within each strain
Details: doa10∆
quantityMeasured: protein stability index
One number for each entry.

Completed entries (count: 8):
KYYIVSSSKSMINDENY [SRB8] = 2.91
KIDLASGKITDFIKFDA [RPS4A] = 3.26
KAAISFGAKPEEQKSSD [YJL041W/NSP1] = 3.12
RSKGKQNRPYNHPELQG [RPC17] = 2.08
YVAIVVDPLKSLEDKIL [RRI1] = 1.12
DKKLLRRLLNLYNDNNK [SWI1] = 2.48
SRDLDISSSTQCLRFLK [POP6] = 2.46
NPSQGVSNSGAQDEEIH [UBP6] = 2.04

I would be grateful if you could provide protein stability index for each of the following entries.
1. AYPAAREQFLNAQDIDH [FAS1]
2. VINKLDRLILDLKLPPM [SNU114]
3. KEKIKNNRQLPYLVANV [RPT5]
4. QLYEDLCRYEDTLSKLV [MED4]
5. KLLKEKVKLFHGILDDL [MED2]
6. LNIKPLLDAGCKVVAEM [SKP1]

Response line:
1: 3.13; 2: 2.05; 3: 2.78; 4: 2.62; 5: 3.1; 6: 2.44

I would be grateful if you could provide protein stability index for each of the following entries.
1. YSIFLENENILIKAKNF [SMC1]
2. AQFVSNKQYHQANSNLT [NUT1]
3. DRELNEVINQMERLDGD [SMC3]
4. DRREKAERTMSKKETKL [SMC2]
5. TRVTRLSLQRANVEILA [CSL4]
6. IAFDDLIENKIQNKKIQ [RPN8]
7. RINSTDEDLHEFQIEDA [SRB8]

Response line:
[1.21, 2.94, 3.13, 3.31, 1.64, 2.54, 2.86]

I would be grateful if you could provide protein stability index for each of the following entries.
1. KKSGSLTFNSKNIQSKD [FAS2]
2. KLSKEERAARVAAKIAA [RPL5]

Response line:
3.2
2.54

I would be grateful if you could provide protein stability index for each of the following entries.
1. QFCGIKERNSLKKLKAM [BRR2]
2. VLDVDPKYAKQKDKSDT [ISW2]
3. FNTPFANTGGQDKIELS [SNF2]
4. TNVYSKDLVIVSNLMGR [RPB3]
5. VTNDLDTSAEKDQIQAG [SIR4]
6. YSRITLIIDDPSKGQSL [RPP1]

Response line:
[3, 2.91, 1.89, 3.04, 3.32, 2.09]

I would be grateful if you could provide protein stability index for each of the following entries.
1. DAAAEKRNGDEVYTLVD [ARP7]
2. IVDFTLPPPPPPPGLDE [PRP8]

Response line:
3.28
3.15

I would be grateful if you could provide protein stability index for each of the following entries.
1. HSGELMRQQSKELQQLQ [SMC1]
2. QDLILDLKKKLNSLKDE [SMC4]

Response line:
[2.89, 2.39]

I would be grateful if you could provide protein stability index for each of the following entries.
1. LKLPLEINYAFSMDEEF [SIR3]
2. EIEQVCKQVHDKLTSIQ [MED7]
3. WTMRIEGRLLDNVQAND [SNF12]
4. INGWELTKAQKYLEQVL [RPL17A]

Response line:
2.13
2.92
2.48
3.34

I would be grateful if you could provide protein stability index for each of the following entries.
1. NGVPGQALDAVRMRLAQ [MED8]
2. YQELGSLQSSSQTQLEN [MED2]
3. GNPGRIRVLFKENGQLI [SEC65]
4. EEELWNSPSKGNSERPS [YIL149C/MLP2]
5. ILQILNLMILNTKVPVD [YML103C/NUP188]
6. ESELSLLEETQAKLKKN [SMC4]

Response line:
1. 1.38
2. 2.96
3. 2.38
4. 3.11
5. 1.34
6. 2.7
